test: Cytotoxicity against mouse primary astrocytes after 5 days by MTT assay; format: cell-based; conditions: Astrocyte, 120 h
pIC50: −log10 of the molar value.
Some compounds, each annotated with its measured pIC50.
reportedEndpoint: pIC50

- CN(C)c1ccc2c(c1)OC(N)=C(C#N)C2c1cccc2c(F)cccc12 (stereo not drawn): 5.02
- CN(C)c1ccc2c(c1)OC(N)=C(C#N)C2c1ccc(N(C)C)c2ccccc12 (stereo not drawn): 5.69

###

# IC50 annotations
system: PC-3; assay: Antiproliferative activity against human PC3 cells after 96 hrs by SRB assay; type: functional, cell-based; conditions: PC-3, 96 h
reportedEndpoint: IC50 (nM)

- CN(C)c1ccc2c(c1)OC(N)=C(C#N)C2c1cccc2c(Br)cccc12 (stereo not given): 390
- CN(C)c1ccc2c(c1)OC(N)=C(C#N)C2c1cccc2c(F)cccc12 (stereo not given): 420
- CN(C)c1ccc2c(c1)OC(N)=C(C#N)C2c1ccc(F)c2ccccc12 (stereo not given): 640
- CN(C)c1ccc2c(c1)OC(N)=C(C#N)C2c1ccc(N(C)C)c2ccccc12 (stereo not given): 220
- COc1ccc(C2C(C#N)=C(N)Oc3cc(N(C)C)ccc32)c2ccccc12 (stereo not given): 430
